Test system: LOX IMVI melanoma
run description: NCI-60 one-dose screen, 48 h (100 = growth as untreated, 0 = no growth, -100 = all killed)
stated conditions: 10 µM
The panel holds about 83,000 compounds, 20% with a hit somewhere; the sample as a whole holds those more often.
We'd kindly ask you to apply these growth classes: LOW: < 30%; MEDIUM: ≥ 30% and < 90%; HIGH: ≥ 90%

INSERT INTO assay_data (molecule, tested_target, class_assignment) VALUES
  ('COC(=O)C(=[N+]=[N-])C(=O)c1ccc([N+](=O)[O-])o1', 'LOX IMVI melanoma', 'MEDIUM'),
  ('O=C(c1ccccc1)C(O)C(Br)(CBr)c1ccccc1 (stereo not drawn)', 'LOX IMVI melanoma', 'MEDIUM'),
  ('COc1cc(/C=C/C(=O)CC(=O)/C=C/c2ccc(O)c(OC)c2)ccc1O', 'LOX IMVI melanoma', 'LOW'),
  ('CCCOS(=O)(=O)c1ccccc1', 'LOX IMVI melanoma', 'HIGH'),
  ('COc1ccc2c(c1OC)OCC(CN(C)C)C2=O (stereo not drawn)', 'LOX IMVI melanoma', 'MEDIUM'),
  ('O=C1/C(=C/c2ccccn2)CCc2ccccc21', 'LOX IMVI melanoma', 'MEDIUM'),
  ('Cc1ccc(/C=C2\CNC/C(=C\c3ccc(C)cc3)C2=O)cc1', 'LOX IMVI melanoma', 'LOW'),
  ('Cc1nc([N+](=O)[O-])c(Sc2nncc(-c3ccccc3)n2)n1C', 'LOX IMVI melanoma', 'MEDIUM'),
  ('Cc1cc(C(N)=O)cc(C)c1C(=O)OCCCl', 'LOX IMVI melanoma', 'HIGH'),
  ('CN(C)c1ccc(/C=C/c2ccnc3ccccc23)cc1', 'LOX IMVI melanoma', 'MEDIUM'),
  ('Cc1cc(C(=O)c2ccc(Cl)cc2)ccc1O', 'LOX IMVI melanoma', 'HIGH'),
  ('COC1CC(C)C(OC)c2cc(O)cc(c2O)NC(=O)/C(C)=C/C=C\C(C)C(OC(N)=O)/C(C)=C\C(C)C1OC (stereo not drawn)', 'LOX IMVI melanoma', 'LOW'),
  ('O=C(CBr)c1ccc(OC(=O)c2ccccc2)cc1', 'LOX IMVI melanoma', 'MEDIUM'),
  ('O=C(Cc1nc2cc(Cl)c(Cl)cc2nc1CC(=O)c1ccccc1)c1ccccc1', 'LOX IMVI melanoma', 'MEDIUM'),
  ('O=C1c2ccccc2C(=O)c2c(O)c(Cl)cc(O)c21', 'LOX IMVI melanoma', 'MEDIUM'),
  ('O=C(OC12CC3CC(CC(C3)C1)C2)c1ccc(NCc2cc(O)ccc2O)cc1', 'LOX IMVI melanoma', 'LOW'),
  ('O=C(Cc1ccccc1)C(F)(F)F', 'LOX IMVI melanoma', 'HIGH'),
  ('CCCCCCCCCCCC1N=C(N)N=C(N)N1c1cccc(Br)c1 (stereo not drawn)', 'LOX IMVI melanoma', 'LOW'),
  ('CC(CSc1n[nH]c(=S)s1)c1ccccc1 (stereo not drawn)', 'LOX IMVI melanoma', 'HIGH'),
  ('N#CC(I)CS(=O)(=O)c1ccccc1 (stereo not drawn)', 'LOX IMVI melanoma', 'MEDIUM'),
  ('CC(=O)N1CC(=O)NC1=S', 'LOX IMVI melanoma', 'HIGH'),
  ('Cc1ccccc1N=C(N)Nc1ccccc1C (tested in a mixture with another compound)', 'LOX IMVI melanoma', 'HIGH'),
  ('COc1cc2c(c(OC)c1OC)-c1ccc(NCc3ccccc3)c(=O)cc1[C@@H](NC(C)=O)CC2', 'LOX IMVI melanoma', 'LOW'),
  ('COC(=O)c1nc(=S)[nH]c(C(=O)OC)c1C(=O)c1ccc(Cl)c(Cl)c1', 'LOX IMVI melanoma', 'HIGH'),
  ('CCCCCC[C@@H](O)C/C=C\CCCCCCCC(=O)OCCOC', 'LOX IMVI melanoma', 'MEDIUM'),
  ('c1ccc(C2NCCNC2c2ccccc2)cc1 (stereo not drawn)', 'LOX IMVI melanoma', 'HIGH'),
  ('Cc1cccc2c(N)c3ccccc3nc12', 'LOX IMVI melanoma', 'LOW'),
  ('O=C(CCl)N(c1ccccc1)c1ccccc1', 'LOX IMVI melanoma', 'LOW'),
  ('CN(C)CC(C)(CN(C)C)C(=O)/C=C/c1c(Cl)cccc1Cl', 'LOX IMVI melanoma', 'LOW'),
  ('O=[N+]([O-])c1cc(-c2ccccc2)c(O)c([N+](=O)[O-])c1', 'LOX IMVI melanoma', 'MEDIUM'),
  ('O=C(NNc1ccccc1)OCc1ccccc1', 'LOX IMVI melanoma', 'LOW'),
  ('Cc1c(O)ccc(SC#N)c1C', 'LOX IMVI melanoma', 'HIGH'),
  ('COc1ccc(C(Cn2ccnc2)Sc2ccc(Cl)c(Cl)c2)cc1 (stereo not drawn)', 'LOX IMVI melanoma', 'MEDIUM'),
  ('CCCCCCCCCCCCCCCCCC1=NCCCN1CCO', 'LOX IMVI melanoma', 'HIGH'),
  ('O=C(c1ccccc1)C(Br)C(Br)c1ccccc1 (stereo not drawn)', 'LOX IMVI melanoma', 'LOW'),
  ('Oc1ccc2ccccc2c1N=Nc1ccccn1', 'LOX IMVI melanoma', 'LOW'),
  ('O=C(O)c1ccc2c(c1)C(=O)c1ccccc1C2=O', 'LOX IMVI melanoma', 'HIGH'),
  ('CCCc1cc(=O)oc2c3c(c4c(c12)OC(C)(C)CC4)OC(C)[C@H](C)[C@@H]3O (stereo partly drawn)', 'LOX IMVI melanoma', 'MEDIUM'),
  ('O=[N+]([O-])/C(=C/c1ccccc1)c1ccccc1', 'LOX IMVI melanoma', 'HIGH'),
  ('Oc1c(Cl)cc(Cl)cc1C(c1cc(Cl)cc(Cl)c1O)C(Cl)(Cl)Cl', 'LOX IMVI melanoma', 'LOW'),
  ('c1csc(-c2[nH]nc3c2CCc2ccccc2-3)c1', 'LOX IMVI melanoma', 'HIGH'),
  ('Nc1cccc2cccc([N+](=O)[O-])c12', 'LOX IMVI melanoma', 'HIGH'),
  ('NNc1ccc(Cl)cc1Cl', 'LOX IMVI melanoma', 'MEDIUM'),
  ('CN(C)c1ccc(/C=C/c2cc[n+](C)c(/C=C/c3ccc(N(C)C)cc3)c2)cc1', 'LOX IMVI melanoma', 'LOW'),
  ('c1ccc(-c2cccc(-c3ccccn3)n2)nc1', 'LOX IMVI melanoma', 'LOW'),
  ('C[n+]1ccccc1C[n+]1ccccc1', 'LOX IMVI melanoma', 'HIGH');
